- TEST_SYSTEM: T1, recombinant biotinylated human PAR2 extracellular domain (residues 1-75), N-terminal AviTag, C-terminal Flag … (human, UniProt P55085 26-75, biotin on the AviTag (enzymatic biotinylation))
- T1 construct: also called Bio-human-PAR2 ECD; human PAR2 ECD; not shown: N-terminal AviTag (Avidity LLC); C-terminal Flag and poly Histidine tags
- T1 sequence (P55085 26-75): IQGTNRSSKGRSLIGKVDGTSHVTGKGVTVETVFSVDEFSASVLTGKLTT
- ASSAY_METHOD_TEXT: HTRF competition with Dylight650-Par0067 IgG, pH 6.0, IgG
- Description: Parent Par0067 IgG (used as a reference/control in all assays) was pre-diluted to give a 2000 nM stock in each of the two different pH assay buffers (in order to give a top final assay IgG concentration of 500 nM). All test, or other reference/control IgG were tested from a top final assay concentration of ¼ of the neat undiluted sample (i.e. no pre-dilution step was performed). […]
MEASURED_PROPERTY: IC50 (nM)
Your answer should be a plain number; it is taken to be in nM.

Would you please look over these solved cases?
PaB670156 IgG (antibody, V domains shown, IgG1-TM (L234F, L235E, P331S), human lambda light chain) VH: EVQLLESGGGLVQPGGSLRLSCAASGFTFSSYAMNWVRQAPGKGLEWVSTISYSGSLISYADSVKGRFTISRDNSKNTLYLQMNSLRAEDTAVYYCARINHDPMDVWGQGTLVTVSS VL: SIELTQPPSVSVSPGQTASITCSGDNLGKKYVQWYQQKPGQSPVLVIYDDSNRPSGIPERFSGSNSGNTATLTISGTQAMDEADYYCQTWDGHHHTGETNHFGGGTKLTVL :: 190
PaB670144 IgG (antibody, V domains shown, IgG1-TM (L234F, L235E, P331S), human lambda light chain) VH: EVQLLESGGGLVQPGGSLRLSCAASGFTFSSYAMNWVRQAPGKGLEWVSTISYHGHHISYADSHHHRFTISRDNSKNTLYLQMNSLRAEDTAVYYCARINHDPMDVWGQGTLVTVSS VL: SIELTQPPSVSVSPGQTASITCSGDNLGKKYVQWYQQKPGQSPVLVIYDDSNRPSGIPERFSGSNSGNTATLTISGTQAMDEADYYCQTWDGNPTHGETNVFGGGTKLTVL :: 565
PaB670153 IgG (antibody, V domains shown, IgG1-TM (L234F, L235E, P331S), human lambda light chain) VH: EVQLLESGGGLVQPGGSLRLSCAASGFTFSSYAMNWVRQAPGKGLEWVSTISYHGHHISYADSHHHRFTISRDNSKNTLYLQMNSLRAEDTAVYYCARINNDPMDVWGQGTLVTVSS VL: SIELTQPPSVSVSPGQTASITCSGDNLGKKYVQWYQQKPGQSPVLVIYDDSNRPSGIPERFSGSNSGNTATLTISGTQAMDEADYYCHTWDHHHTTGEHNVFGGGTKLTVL :: 1640
PaB670157 IgG (antibody, V domains shown, IgG1-TM (L234F, L235E, P331S), human lambda light chain) VH: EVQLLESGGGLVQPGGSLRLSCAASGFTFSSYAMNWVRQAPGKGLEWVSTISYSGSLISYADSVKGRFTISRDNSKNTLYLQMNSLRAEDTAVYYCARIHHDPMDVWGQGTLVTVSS VL: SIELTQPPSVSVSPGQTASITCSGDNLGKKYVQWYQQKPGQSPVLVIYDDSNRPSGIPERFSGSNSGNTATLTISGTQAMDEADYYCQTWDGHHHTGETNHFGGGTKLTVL :: 932

Find the recorded IC50 belonging to PaB670158 IgG (antibody, V domains shown, IgG1-TM (L234F, L235E, P331S), human lambda light chain) VH: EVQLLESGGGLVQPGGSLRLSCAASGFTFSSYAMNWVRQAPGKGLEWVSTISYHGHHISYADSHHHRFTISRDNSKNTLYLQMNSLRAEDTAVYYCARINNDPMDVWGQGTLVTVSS VL: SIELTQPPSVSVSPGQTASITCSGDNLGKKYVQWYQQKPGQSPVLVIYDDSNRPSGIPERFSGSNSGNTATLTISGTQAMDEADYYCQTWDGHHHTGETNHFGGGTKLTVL and report it.
477
